- measurement.target: Extracellular calcium-sensing receptor (Rattus norvegicus) (UniProt P48442)
- Sequence (P48442 whole entry): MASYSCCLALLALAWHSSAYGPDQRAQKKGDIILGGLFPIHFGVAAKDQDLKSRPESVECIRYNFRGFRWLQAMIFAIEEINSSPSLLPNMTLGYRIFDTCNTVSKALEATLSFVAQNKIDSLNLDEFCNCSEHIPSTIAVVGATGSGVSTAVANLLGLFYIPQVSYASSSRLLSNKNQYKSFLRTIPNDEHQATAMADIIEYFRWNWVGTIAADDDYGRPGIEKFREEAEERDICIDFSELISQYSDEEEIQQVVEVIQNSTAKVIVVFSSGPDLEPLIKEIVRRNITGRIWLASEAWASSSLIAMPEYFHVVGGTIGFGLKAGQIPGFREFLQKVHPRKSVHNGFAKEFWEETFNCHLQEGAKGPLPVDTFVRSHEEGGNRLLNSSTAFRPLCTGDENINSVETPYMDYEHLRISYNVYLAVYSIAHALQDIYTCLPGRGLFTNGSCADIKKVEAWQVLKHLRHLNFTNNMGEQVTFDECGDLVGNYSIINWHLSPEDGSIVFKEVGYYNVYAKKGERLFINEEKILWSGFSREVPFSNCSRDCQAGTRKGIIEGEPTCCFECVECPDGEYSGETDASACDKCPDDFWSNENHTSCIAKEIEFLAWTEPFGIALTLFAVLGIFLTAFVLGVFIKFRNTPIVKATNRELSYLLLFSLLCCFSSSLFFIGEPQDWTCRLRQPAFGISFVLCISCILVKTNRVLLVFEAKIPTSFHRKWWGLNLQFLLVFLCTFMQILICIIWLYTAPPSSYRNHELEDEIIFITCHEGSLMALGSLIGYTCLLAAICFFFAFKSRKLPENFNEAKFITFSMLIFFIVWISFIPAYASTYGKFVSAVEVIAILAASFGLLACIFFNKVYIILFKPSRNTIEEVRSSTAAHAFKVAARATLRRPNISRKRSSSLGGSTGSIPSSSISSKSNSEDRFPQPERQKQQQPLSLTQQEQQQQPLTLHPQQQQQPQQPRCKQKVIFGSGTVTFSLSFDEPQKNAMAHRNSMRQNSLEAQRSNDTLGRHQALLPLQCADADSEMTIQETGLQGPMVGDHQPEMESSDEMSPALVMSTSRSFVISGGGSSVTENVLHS
- assay.text: Compound was evaluated for accumulation of [3H]- IP in CHO (CaSR) cells expressing rat cloned calcium sensing receptor
- Format: functional, cell-based
Labelling field: enter Condition met if recorded Accumulation is less than 80%. Enter Condition not met if it equals or exceeds that cut-off.

compound="CC(NCC(Cc1ccccc1)NS(=O)(=O)c1ccc(C(F)(F)F)cc1)c1cccc2ccccc12 (stereo not given)" measurement_target="Extracellular calcium-sensing receptor (Rattus norvegicus) (UniProt P48442)" answer_label="Condition met"
compound="COc1ccc(S(=O)(=O)NC(CNC(C)c2cccc3ccccc23)Cc2ccc3c(c2)OCO3)cc1 (stereo not given)" measurement_target="Extracellular calcium-sensing receptor (Rattus norvegicus) (UniProt P48442)" answer_label="Condition met"
compound=COc1cccc([C@@H](C)NCCCc2ccccc2Cl)c1 measurement_target="Extracellular calcium-sensing receptor (Rattus norvegicus) (UniProt P48442)" answer_label="Condition not met"
compound="COc1ccc(S(=O)(=O)NC(CNC(C)c2cccc(OC)c2)Cc2ccccc2)cc1 (stereo not given)" measurement_target="Extracellular calcium-sensing receptor (Rattus norvegicus) (UniProt P48442)" answer_label="Condition met"
compound="COc1ccc(S(=O)(=O)NC(CNC(C)c2cccc3ccccc23)Cc2ccccc2)cc1OC (stereo not given)" measurement_target="Extracellular calcium-sensing receptor (Rattus norvegicus) (UniProt P48442)" answer_label="Condition not met"
compound="Cc1ccc(S(=O)(=O)NC(CNC(C)c2ccccc2)Cc2ccccc2)cc1 (stereo not given)" measurement_target="Extracellular calcium-sensing receptor (Rattus norvegicus) (UniProt P48442)" answer_label="Condition met"
compound="COc1ccc(S(=O)(=O)NC(CNC(C)c2cccc3ccccc23)Cc2ccccc2Cl)cc1 (stereo not given)" measurement_target="Extracellular calcium-sensing receptor (Rattus norvegicus) (UniProt P48442)" answer_label="Condition met"
compound="CC(NCC(Cc1ccccc1)NS(=O)(=O)c1cccc(Cl)c1)c1cccc2ccccc12 (stereo not given)" measurement_target="Extracellular calcium-sensing receptor (Rattus norvegicus) (UniProt P48442)" answer_label="Condition not met"
compound="COc1ccc(S(=O)(=O)NC(CNC(C)c2cccc3ccccc23)Cc2ccccc2OC)cc1 (stereo not given)" measurement_target="Extracellular calcium-sensing receptor (Rattus norvegicus) (UniProt P48442)" answer_label="Condition met"

Values were extracted from ChEMBL document CHEMBL1133298.
